Consider the following compounds; for each one, report its MIC.
Test system: Aspergillus flavus
assay_details: Minimal inhibitory effect against the Aspergillus flavus (C1150).
Format: functional

INPUT: Any idea what MIC was measured for CC(C)C1=CC2CC3(C=O)[C@@H]4CC[C@@H](C)[C@H]4CC2(CO[C@H]2C[C@H]4[C@H](OC[C@@H]4C)[C@@H](C)O2)C13C(=O)O (stereo partly drawn) ?
OUTPUT: 62 µg/mL

INPUT: Any idea what MIC was measured for CC[C@H]1CO[C@H]2C1[C@H](O)[C@H](OCC13C[C@@H]4[C@H](C)CC[C@H]4C4(C=O)CC1C=C(C(C)C)C34C(=O)O)O[C@@H]2C (single isomer, unassigned) ?
OUTPUT: > 125 µg/mL

INPUT: Any idea what MIC was measured for CC(C)C1=CC2CC3(C=O)[C@@H]4CC[C@@H](C)[C@H]4CC2(CO[C@@H]2O[C@H](C)[C@H]4OC[C@H](C)C4[C@@H]2O)C13C(=O)O (single isomer, unassigned) ?
OUTPUT: > 125 µg/mL

* * *

Consider the following molecules; for each one, report its MIC.
Tested on: Aspergillus flavus
assay_details: Minimal inhibitory effect against the Aspergillus flavus (C1150).
Format: functional

INPUT: Any idea what MIC was measured for CC(C)C1=CC2CC3(C=O)[C@@H]4CC[C@@H](C)[C@H]4CC2(CO[C@@H]2O[C@H](C)[C@H]4OC[C@@H](C)C4[C@@H]2O)C13C(=O)O (single isomer, unassigned) ?
OUTPUT: > 125 µg/mL

INPUT: Any idea what MIC was measured for CC[C@@H]1CO[C@H]2C1[C@H](O)[C@H](OCC13C[C@@H]4[C@H](C)CC[C@H]4C4(C=O)CC1C=C(C(C)C)C34C(=O)O)O[C@@H]2C (single isomer, unassigned) ?
OUTPUT: > 125 µg/mL

INPUT: Any idea what MIC was measured for CC(C)C1=CC2CC3(C=O)[C@@H]4CC[C@@H](C)[C@H]4CC2(CO[C@H]2C[C@H]4[C@H](OC[C@H]4C)[C@@H](C)O2)C13C(=O)O (stereo partly drawn) ?
OUTPUT: > 125 µg/mL

* * *

Consider the following molecules; for each one, report its MIC.
System: Aspergillus flavus
assay_details: Minimal inhibitory effect against the Aspergillus flavus (C1150).
Assay type: functional

INPUT: Any idea what MIC was measured for CC[C@@H]1CO[C@H]2[C@@H]1C[C@H](OCC13C[C@@H]4[C@H](C)CC[C@H]4C4(C=O)CC1C=C(C(C)C)C34C(=O)O)O[C@@H]2C (stereo partly drawn) ?
OUTPUT: > 125 µg/mL

INPUT: Any idea what MIC was measured for CC(C)C1=CC2CC3(C=O)[C@@H]4CC[C@@H](C)[C@H]4CC2(CO[C@H]2C[C@H]4[C@H](OCC4(C)C)[C@@H](C)O2)C13C(=O)O (stereo partly drawn) ?
OUTPUT: > 125 µg/mL

INPUT: Any idea what MIC was measured for CC[C@H]1CO[C@H]2[C@@H]1C[C@H](OCC13C[C@@H]4[C@H](C)CC[C@H]4C4(C=O)CC1C=C(C(C)C)C34C(=O)O)O[C@@H]2C (stereo partly drawn) ?
OUTPUT: 62 µg/mL

* * *

System: Kluyveromyces marxianus
assay_details: Minimal inhibitory effect against the Candida pseudotropicalis (2371E).
Assay type: functional
observation_type: MIC

INPUT: Any idea what MIC was measured for CC[C@H]1CO[C@H]2[C@@H]1C[C@H](OCC13C[C@@H]4[C@H](C)CC[C@H]4C4(C=O)CC1C=C(C(C)C)C34C(=O)O)O[C@@H]2C (stereo partly drawn) ?
OUTPUT: < 0.001 µg/mL

INPUT: Any idea what MIC was measured for CC[C@@H]1CO[C@H]2C1[C@H](O)[C@H](OCC13C[C@@H]4[C@H](C)CC[C@H]4C4(C=O)CC1C=C(C(C)C)C34C(=O)O)O[C@@H]2C (single isomer, unassigned) ?
OUTPUT: 0.06 µg/mL

INPUT: Any idea what MIC was measured for CC(C)C1=CC2CC3(C=O)[C@@H]4CC[C@@H](C)[C@H]4CC2(CO[C@H]2C[C@H]4[C@H](OC[C@@H]4C(C)C)[C@@H](C)O2)C13C(=O)O (stereo partly drawn) ?
OUTPUT: < 0.001 µg/mL
